# tested-target: CDK7/Cyclin H/MAT-1 complex (Homo sapiens, UniProt P50613)
# Construct: Human CDK7 (amino acids 1-346); His6 (N); TEV protease cleavage site (N); made in house; host or cells: baculovirus-SF9 insect cells
# Sequence (P50613 whole entry, the tested form may be a part): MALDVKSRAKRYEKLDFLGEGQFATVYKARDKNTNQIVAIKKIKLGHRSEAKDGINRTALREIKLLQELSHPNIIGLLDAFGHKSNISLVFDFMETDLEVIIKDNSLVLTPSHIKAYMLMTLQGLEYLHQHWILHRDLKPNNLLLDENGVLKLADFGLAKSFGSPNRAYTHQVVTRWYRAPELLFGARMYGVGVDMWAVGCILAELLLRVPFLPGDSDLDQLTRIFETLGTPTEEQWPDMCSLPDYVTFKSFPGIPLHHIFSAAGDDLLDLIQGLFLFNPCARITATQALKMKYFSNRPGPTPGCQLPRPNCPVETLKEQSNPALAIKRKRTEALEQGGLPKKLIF
# Sequence (P51946 whole entry partner, the tested form may be a part): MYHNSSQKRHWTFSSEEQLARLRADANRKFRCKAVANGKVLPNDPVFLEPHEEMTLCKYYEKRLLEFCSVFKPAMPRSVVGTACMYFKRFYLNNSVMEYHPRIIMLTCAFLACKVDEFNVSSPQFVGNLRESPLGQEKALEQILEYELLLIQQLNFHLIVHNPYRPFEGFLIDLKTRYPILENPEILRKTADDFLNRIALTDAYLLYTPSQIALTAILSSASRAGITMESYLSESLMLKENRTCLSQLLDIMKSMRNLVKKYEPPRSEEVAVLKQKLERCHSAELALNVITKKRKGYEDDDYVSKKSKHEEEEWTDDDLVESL
# Sequence (P51948 whole entry partner, the tested form may be a part): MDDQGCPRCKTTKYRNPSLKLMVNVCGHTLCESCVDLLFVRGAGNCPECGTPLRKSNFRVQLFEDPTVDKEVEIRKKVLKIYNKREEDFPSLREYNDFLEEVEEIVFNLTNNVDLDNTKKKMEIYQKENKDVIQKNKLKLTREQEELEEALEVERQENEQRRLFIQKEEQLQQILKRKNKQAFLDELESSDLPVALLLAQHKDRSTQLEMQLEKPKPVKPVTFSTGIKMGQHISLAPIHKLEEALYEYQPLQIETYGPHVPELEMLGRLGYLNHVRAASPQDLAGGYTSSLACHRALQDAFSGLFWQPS
# experiment-summary: Absorbance kinetic assay (20 nM CDK7/Cyclin H/MAT-1 complex)
# Assay type: biochemical
measure: CDK7 (20 nM) pIC50

Param item = Cc1cc(CNc2ncc3c(n2)CN(C(=O)[C@H]2CCN(C)C[C@@H]2c2ccccc2)[C@H](C)C3)nn1C ; retrieve measured CDK7 (20 nM) pIC50.
7.58

Now the same for C[C@@H]1Cc2cnc(Nc3ccnc(C(F)F)c3)nc2CN1C(=O)[C@H]1CCN(C)C[C@@H]1c1ccccc1
7.46

Now the same for CC(C)n1cc(CNc2ncc3c(n2)CN(C(=O)[C@H]2CCN(C)C[C@@H]2c2ccccc2)[C@H](C)C3)cn1
7.03

Now the same for C[C@@H]1Cc2cnc(NCc3cnn(C)c3)nc2CN1C(=O)[C@H]1CCN(C)C[C@@H]1c1ccccc1
6.66

Now the same for C[C@@H]1Cc2cnc(NC3CCOCC3)nc2CN1C(=O)[C@H]1CCN(C)C[C@@H]1c1ccc(F)cc1 (single isomer, unassigned) [Compound 92b]
7.92

Now the same for CC(C)N1CCN(C(=O)N2Cc3nc(NC4CCOCC4)ncc3C[C@H]2C)[C@@H](c2ccccc2)C1
7.79

---

# tested-target: CDK7/Cyclin H/MAT-1 complex (Homo sapiens, UniProt P50613)
# Construct: Human CDK7 (amino acids 1-346); His6 (N); TEV protease cleavage site (N); made in house; host or cells: baculovirus-SF9 insect cells
# experiment-summary: Flint assay, end-point fluorescence (5 nM CDK7/Cyclin H/MAT-1 complex)
# Format: biochemical
measure: CDK7 (5 nM) pIC50

Query the reported CDK7 (5 nM) pIC50 for CDK7/Cyclin H/MAT-1 complex (Homo sapiens, UniProt P50613); item: C[C@H]1Cc2cnc(NC3(c4ccccc4)COC3)cc2CN1C(=O)[C@H]1CCN(C)C[C@@H]1c1ccccc1 (single isomer, unassigned)
8.13

Now the same for C[C@@H]1Cc2cnc(NC3CCS(=O)(=O)CC3)nc2CN1C(=O)[C@H]1CCN(C)C[C@@H]1c1ccccc1
8.04

Now the same for C[C@@H]1Cc2cnc(NC3Cc4ccccc4C3)nc2CN1C(=O)[C@H]1CCN(C)C[C@@H]1c1ccccc1
8.55

Now the same for C[C@@H]1Cc2cnc(N[C@H]3CC[C@H](O)CC3)nc2CN1C(=O)[C@H]1CCN(C)C[C@@H]1c1ccccc1
8.49

Now the same for CO[C@]1(C)CC[C@@H](Nc2ncc3c(n2)CN(C(=O)[C@H]2CCN(C)C[C@@H]2c2ccccc2)[C@H](C)C3)CC1
8.11

Now the same for CN1CC[C@H](C(=O)N2Cc3nc(Nc4cnn(C)c4)ncc3[C@@H]3C[C@@H]32)[C@@H](c2ccccc2)C1
7.77

---

# tested-target: CDK7/Cyclin H/MAT-1 complex (Homo sapiens)
# Construct: Human CDK7 (amino acids 1-346); His6 (N); TEV protease cleavage site (N); made in house; host or cells: baculovirus-SF9 insect cells
# experiment-summary: Absorbance kinetic assay (20 nM CDK7/Cyclin H/MAT-1 complex)
# Type: biochemical
# condition-notes: read-out: CDK7 (20 nM) pIC50 (converted)
# Protocol: Human CDK7 (amino acids 1-346) containing an N-terminal His6-tag followed by a tobacco etch virus (TEV) protease cleavage site, human MAT1 (amino acids 1-309) and human cyclin H (amino acids 1-323) were co-expressed in the baculovirus-SF9 insect cell expression system to generate a trimeric complex. […] Absorbance Kinetic Assay (20 nM CDK7/Cyclin H/MAT-1 Complex) […] Absorbance at 340 nm was followed kinetically at an interval of 2 minutes for 8 hours. […]
measure: IC50 (nM)

In the examples that follow, each entry is paired with its recorded IC50.
Param item = Cc1cccc([C@H]2CN(C)CC[C@@H]2C(=O)N2Cc3nc(Nc4cnn(C)c4)ncc3[C@@H]3C[C@@H]32)c1 (relative stereo) ; retrieve measured IC50.
17

Now the same for C[C@@H]1Cc2cnc(NC[C@H]3CCCO3)nc2CN1C(=O)[C@H]1CCN(C)C[C@@H]1c1ccccc1
14.5

Now the same for C[C@@H]1Cc2cnc(NCc3ccn(C)n3)nc2[C@@H](C)N1C(=O)[C@H]1CCN(C)C[C@@H]1c1ccccc1 (relative stereo)
776

Now the same for CO[C@H]1CC[C@H](Nc2cc3c(cn2)C[C@H](C)N(C(=O)[C@H]2CCN(C)C[C@@H]2c2cccc(C)c2)C3)CC1 [Compound 177c]
389

[P] C[C@@H]1Cc2cnc(NCc3ccn(C)n3)nc2CN1C(=O)[C@@H]1CCN(C)C[C@H]1c1cccc(OC(F)(F)F)c1 (relative stereo)
[Q] C[C@@H]1Cc2cnc(NC3CCOCC3)nc2CN1C(=O)[C@H]1CCN(C)C[C@@H]1c1ccc(F)c(Cl)c1 (relative stereo)
[R] C[C@@H]1CN(C)CC[C@H]1C(=O)N1Cc2nc(NC3CCOCC3)ncc2C[C@H]1C (relative stereo)
[S] CC1CN(C(=O)[C@H]2CCN(C)C[C@@H]2c2ccccc2)Cc2nc(Nc3cnn(C)c3)ncc21 (mixture of isomers)
[T] Cc1ccc([C@@H]2CN(C)CC[C@H]2C(=O)N2Cc3nc(NC4CCOCC4)ncc3C[C@H]2C)cn1 (relative stereo)
Arrange the 5 entries by IC50 so the values rise. Provide your answer as the labels ordered per the instruction.
Q, S, R, T, P
(Q: 11 nM, S: 17.8 nM, R: 67.6 nM, T: 105 nM, P: 234 nM)

[I] Cc1ccc([C@H]2CN(C)CC[C@@H]2C(=O)N2Cc3nc(NC4CCOCC4)ncc3C[C@H]2C)cc1 (relative stereo)
[II] C[C@@H]1Cc2cnc(NC3CCOCC3)nc2CN1C(=O)[C@H]1CCN(C)C[C@@H]1C1CC1 (relative stereo) [Compound 113]
Compare I and II and name the one whose reported IC50 is smaller. Which one? Tell me its label.
I
(I: 11.7 nM, II: 79.4 nM)

---

# Tested on: RNA polymerase II Serine 5 phosphorylation (Rpb1 CTD), downstream substrate of CDK7
# experiment-summary: Imaging-based cellular RNA PolII Ser5 phosphorylation assay in A549 cells
# Format: cell-based, human
# condition-notes: Homo sapiens, A549, 3 h, challenged with compound for 3 hours, read-out: pRNA polII Ser5 (A549) pIC50 (converted)
measure: IC50

Param item = C[C@@H]1Cc2cnc(NCC3CCOC3)nc2CN1C(=O)[C@H]1CCN(C)C[C@@H]1c1ccccc1 (stereo partly drawn) ; retrieve measured IC50.
302 nM

Now the same for CN1CC[C@H](C(=O)N2Cc3nc(NC4CCOCC4)ncc3[C@@H]3C[C@@H]32)[C@@H](c2ccccc2)C1
~58.9 nM

Others:
Param item = C[C@@H]1Cc2cnc(NC3CCOCC3)nc2CN1C(=O)[C@H]1CCN(C)C[C@@H]1c1ccc(F)cc1 (single isomer, unassigned) [Compound 92b] ; retrieve measured IC50.
~67.6 nM

---

# tested-target: CDK7/Cyclin H/MAT-1 complex (Homo sapiens, UniProt P50613)
# Construct: Human CDK7 (amino acids 1-346); His6 (N); TEV protease cleavage site (N); made in house; host or cells: baculovirus-SF9 insect cells
# experiment-summary: Flint assay, end-point fluorescence (5 nM CDK7/Cyclin H/MAT-1 complex)
# Type: biochemical
# condition-notes: read-out: CDK7 (5 nM) pIC50 (converted)
measure: IC50 (nM)

Param item = CO[C@H]1CC[C@H](Nc2cc3c(cn2)C[C@H](C)N(C(=O)[C@H]2CCN(C)C[C@@H]2c2ccccc2)C3)CC1 (single isomer, unassigned) ; retrieve measured IC50.
7.41

[1] C[C@@H]1Cc2cnc(NCc3ccccc3)nc2CN1C(=O)[C@@H]1CCN(C)C[C@H]1C(F)(F)F (relative stereo)
[2] CO[C@H]1CC[C@H](Nc2cc3c(cn2)C[C@H](C)N(C(=O)[C@H]2CCN(C)C[C@@H]2c2cccc(C)c2)C3)CC1 [Compound 177c]
Compare 1 and 2 and name the one whose reported IC50 is smaller. Which one? Tell me its label.
1
(1: 8.51 nM, 2: 22.4 nM)

[A] Cc1ccc([C@@H]2CN(C)CC[C@H]2C(=O)N2Cc3nc(NC4CCOCC4)ncc3C[C@H]2C)cn1 (relative stereo)
[B] C[C@H](Nc1ncc2c(n1)CN(C(=O)[C@H]1CCN(C)C[C@@H]1c1ccccc1)[C@H](C)C2)c1ccn(C)n1 (single isomer, unassigned)
[C] C[C@H]1CN(C(=O)[C@H]2CCN(C)C[C@@H]2c2ccccc2)[C@@H](C)c2nc(NC3CCOCC3)ncc21 (relative stereo)
[D] C[C@@H]1Cc2cnc(NCc3ccn(C)n3)nc2CN1C(=O)[C@H]1CCN(C)C[C@@H]1c1ccccc1F (relative stereo)
[E] CC1CN(C(=O)[C@H]2CCN(C)C[C@@H]2c2ccccc2)Cc2nc(Nc3cnn(C)c3)ncc21 (mixture of isomers)
Output the entries ranked by IC50 from maximum down to minimum. Provide your answer as the labels ordered per the instruction.
C, B, A, D, E

[I] C[C@@H]1Cc2cnc(NCc3ccn(C)n3)nc2CN1C(=O)[C@H]1CCN(C)C[C@@H]1c1ccccc1C(F)F (relative stereo)
[II] C[C@@H]1Cc2cnc(NCc3ccn(C)n3)nc2CN1C(=O)[C@@H]1CCN(C)C[C@H]1c1cccc(OC(F)(F)F)c1 (relative stereo)
[III] C[C@@H]1CN(C(=O)[C@H]2CCN(C)C[C@@H]2c2ccccc2)Cc2nc(NC3CCOCC3)ncc21 (relative stereo)
Output the entries ranked by IC50 from maximum down to minimum. Provide your answer as the labels ordered per the instruction.
II, I, III
(II: 75.9 nM, I: 49 nM, III: 2.82 nM)
